Experiment: NCI Yeast Anticancer Drug Screen. Data for the cln2 rad14 strain (AID 165);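 note: 0% = growth equal to vehicle treated cultures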
Settings: S. cerevisiae cln2 rad14 strain, at 50.0 µM, hits give high values
This is part of a sample that, as a whole, favours compounds with a hit. Of some 79,000 tested, about 15% had one in any assay.

| compound | readoutUnit | growth inhibition |
| --- | --- | --- |
| Clc1ccc(N=CNc2ccc(Cl)cc2)cc1 | % | -14.2 |
| COc1cc(OC)c2nc3ccccc3c(NCCC[N+](C)(C)[O-])c2c1[N+](=O)[O-] | % | -22.2 |
| [N-]=[N+]=NC1CC(n2cc(Cc3ccccc3)c(N)nc2=O)OC1CO (stereo not drawn) | % | 2.95 |
| C/C(=N\NS(=O)(=O)c1ccc(C)cc1)c1ccc[n+]([O-])n1 | % | 7.4 |
| CC(=O)Nc1nc(Cl)c2ncn(C3OC(COC(=O)c4ccccc4)CC3OC(=O)c3ccccc3)c2n1 (stereo not drawn) | % | 2.6 |
| CNC(=O)N(C)C(=O)c1ccncc1C(=O)N(C(=O)NC1CCCCC1)C1CCCCC1 | % | 20.8 |
| C/C(=N\NC(=S)N1CCC(C)CC1)c1nccnc1C | % | 28.1 |
| COc1ccc2ncc(COC(C)=O)c(COC(C)=O)c2c1 | % | 14.7 |
| CC/C(=N/N(C)C)C(=O)O | % | -10.6 |
| Cc1cc(C)c[n+](-c2nc3c([O-])n(C)c(=O)n(C)c-3n2)c1 | % | -5.45 |
| C=CCn1ccc(=O)nc1SCc1ccccc1 | % | -33.5 |
| Cc1cc(C)c(C)c(CC(C)(COS(C)(=O)=O)COS(C)(=O)=O)c1C | % | 39.2 |
| CC1CCc2nc(N)sc2C1 (stereo not drawn) | % | 8.35 |
| CC(C)(C)C(=O)CC(=O)C(C)(C)C.CC(C)(C)C(=O)CC(=O)C(C)(C)C.CC(C)(C)C(=O)CC(=O)C(C)(C)C.[Co] | % | 16 |
| CC(C)[C@@H](C)[C@@]1(C)C[C@@H]1[C@@H](C)[C@H]1CC[C@@H]([C@@H]2CC=C3C[C@@H](O)CC[C@]3(C)C2=O)[C@]1(C)CCO | % | -17.9 |
| CCCCCCC(/C=N/Nc1ccccn1)=C\c1ccccc1 | % | -7.6 |
| CC1=N/C(=C\c2ccc([N+](=O)[O-])cc2)C(=O)O1 | % | 4.6 |
| CN1C(c2ccccc2)NC(=O)C12CCN(CCCC(=O)c1ccccc1)CC2 (stereo not drawn) | % | 19.5 |
| CN(C(=S)NNC(=O)C1CCC(=O)N1)c1ccccc1 (stereo not drawn) | % | 13.7 |
| CC(=O)N[C@]1(C)CCC2C[C@H]1C(C)=NC2(C)C | % | 12.2 |
| O=C1NC(O)c2cccc([N+](=O)[O-])c2O1 (stereo not drawn) | % | 65.5 |
| COc1cc(C=Nc2ccc(Cl)cc2)ccc1O | % | -20.6 |
| O=C(On1nnc2ccccc2c1=O)c1ccccc1 | % | -7.25 |

----------
Assay: NCI Yeast Anticancer Drug Screen. Data for the cln2 rad14 strain (AID 165);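 note: 0% = growth equal to vehicle treated cultures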
Conditions: S. cerevisiae cln2 rad14 strain, at 50.0 µM, hits give high values
About 79,000 compounds went through this panel and 15% of them were active in at least one assay; those are over-represented in the sample as a whole.
measuredEndpoint: growth inhibition (%)

| structureSmilesString | readoutUnit | reportedValue |
| --- | --- | --- |
| COc1cc(OC)c(C(C)=O)c(O)c1OC | % | 10.6 |
| Cc1csc(C)[n+]1CC(=O)c1ccccc1 | % | -20.2 |
| Cn1c2ccccc2c(=O)c2cc(NC(=O)/C=C/C(=O)Nc3ccc4c(c3)c(=O)c3ccccc3n4C)ccc21 | % | -14.6 |
| O=C1C[C@@H]2[C@@H](CCC23CCCC3)N1 | % | 20.4 |
| COc1ccc(CCNC(=O)CCC2CCN(CCc3ccc(OC)c(OC)c3)CC2)cc1OC | % | 22.4 |
| c1ccc2c(c1)c1ccccc1n2Cn1c2ccccc2c2ccccc21 | % | -27.9 |

----------
Test: NCI Yeast Anticancer Drug Screen. Data for the cln2 rad14 strain (AID 165);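 note: 0% = growth equal to vehicle treated cultures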
Settings: S. cerevisiae cln2 rad14 strain, at 50.0 µM, hits give high values
The panel holds about 79,000 compounds, 15% with a hit somewhere; the sample as a whole holds those more often. Activity calls are given as the source filed them. Rule as the data show it: active = growth inhibition above about 70%; inactive = the rest.

| molecule | growth inhibition |
| --- | --- |
| Cn1c(CC(O)(C(F)(F)Cl)C(F)(F)Cl)cc(=O)n1-c1ccccc1 | 6.25% (inactive) |
| O=[N+]([O-])c1ccc(N/N=C/c2ccccc2O)c([N+](=O)[O-])c1 | -6.8% (inactive) |
| Cc1cc(Cl)cc(CN(C)Cc2c(C)[nH]c(=O)[nH]c2=O)c1O | 2.65% (inactive) |
| CCCCCN(CCCCC)c1ccc(/C=C/c2ccnc3ccccc23)cc1 | -15.7% (inactive) |
| Cc1cccc(OCC(O)CN(Cc2ccsc2)c2ccccn2)c1 (stereo unspecified) | 37.3% (inactive) |
| Cc1nn(C(=O)c2ccc(Cl)cc2)c2c1C(c1ccccc1O)SC(N)=N2 (stereo unspecified) | -1.45% (inactive) |
| CCCCCCCC[N+](C)(C)C | 11.5% (inactive) |
| CN(C)Cc1cc(C(=O)c2ccccc2)c(O)cc1O | -23.6% (inactive) |
| O=c1[nH]c(-c2cccc(F)c2)nc2ccccc12 | 19.2% (inactive) |
| COCC(C)(c1cn(C)c2ccccc12)c1cn(C)c2ccccc12 | -17.9% (inactive) |
| CC(=O)/C(=C\n1c(=S)[nH]c2ccc([N+](=O)[O-])cc21)C(=O)Nc1ccccc1C | -2.8% (inactive) |

----------
Assay: NCI Yeast Anticancer Drug Screen. Data for the mlh1 rad18 strain (AID 175)
Settings: S. cerevisiae mlh1 rad18 strain growth inhibition; at 50.0 µM; hits give high values
Compounds without any hit were thinned out: in the full panel of roughly 79,000, 15% have a hit. Where a SMILES comes first, the peptide text is derived from it. The star is where a group is joined. Boc = CC(C)(C)OC(=O)*; OBn = c1ccc(CO*)cc1; Bn = c1ccc(C*)cc1
Consider the following compounds and their measured growth inhibition readings.
measuredEndpoint: growth inhibition (%)

| compound | measuredEndpoint | reportedValue |
| --- | --- | --- |
| O=C(Nc1ccc(S(=O)(=O)NC2CCCCC2)cc1)OC1CCCCCC1 | growth inhibition | -0.85 |
| NCC1CC1 | growth inhibition | 14.7 |
| Nc1ccc2ccc3ccc(N)nc3c2n1 | growth inhibition | 17.1 |
| O=S(=O)(N/N=C/c1c(Cl)cccc1Cl)c1ccccc1 | growth inhibition | 31.5 |
| Cc1c([N+](=O)[O-])cc(C(C)(C)C)c(OC(=O)C(C)(C)C)c1[N+](=O)[O-] | growth inhibition | 54.3 |
| N/C(=N/N=C/C1CCCCC1)NO | growth inhibition | 13.6 |
| NC1(c2ccccc2)C2CC3CC(C2)CC1C3 (centres undefined) | growth inhibition | 3.7 |
| CC1(C)CC(=O)C2=C(C1)NC(=S)C(C#N)C2c1ccccc1 (centres undefined) | growth inhibition | 30.2 |
| CC/C=C(\CCC)C(C#N)(CC)C(=O)OCC (centres undefined) | growth inhibition | -9.55 |
| O=C(O)C(CCOc1ccccc1)CCOc1ccccc1 | growth inhibition | -26.3 |
| CC1=CC(=O)C(C(C)C)CC1 (centres undefined) | growth inhibition | -0.35 |
| CS(=O)(=O)c1[nH]nc2[nH]c(=O)[nH]c(=O)c12 | growth inhibition | 6.85 |
| C=C(C)COc1c(C)c(C)c(OCC(C)C)c(C)c1C | growth inhibition | -10.9 |
| O=C(Nc1ccc(C(F)(F)F)cc1[N+](=O)[O-])C(=O)Nn1c(=S)[nH]c2ccccc2c1=O | growth inhibition | 23.1 |
| CCN(CC)C(=O)C1CCNCC1 | growth inhibition | -7.75 |
| COC(=O)Nc1ccc(NC(=O)c2cscn2)c(NC(=O)OC)n1 | growth inhibition | -3.45 |
| CC1=CCC(CC=O)C1(C)C (centres undefined) | growth inhibition | -3.45 |
| CO/C=C/c1cc2c(cc1Br)OCO2 | growth inhibition | 12.3 |
| COCc1ccc(C(=O)Nc2c(N)ncnc2N)cc1 | growth inhibition | -0.1 |
| CCN(CC)CCNc1nc(N)c(C#N)c(C#N)c1C#N | growth inhibition | 1.45 |
| S=C1SCN(C(c2ccccc2)c2ccccc2)CN1C(c1ccccc1)c1ccccc1 | growth inhibition | 28.2 |
| CC(C)CC(NC(=O)C(CCC(=O)OCc1ccccc1)NC(=O)OC(C)(C)C)C(=O)NC(COCc1ccccc1)C(=O)NC(Cc1ccccc1)C(=O)O (centres undefined) (Boc-E(OBn)LS(Bn)F-OH; configuration not given here) | growth inhibition | -10.8 |
| O=C(O)c1ccc(C(=O)O)nc1 | growth inhibition | -1.35 |
| c1ccc2c(c1)cc1n2CCc2c-1[nH]c1ccccc21 | growth inhibition | 20.9 |

Provenance of the data: PubChem BioAssay (NCI)
